Assay Remarks: NCI Yeast Anticancer Drug Screen. Data for the rad50 strain (AID 155)
Experimental Context: S. cerevisiae rad50 strain growth inhibition; at 5.0 µM (retest, dose inferred, filed as 0.5)
The panel holds about 79,000 compounds, 15% with a hit somewhere; the sample as a whole holds those more often. Calls of active or inactive are those of the source. Cut-off read from the data, not from the text of the source: active = growth inhibition above about 70%; inactive = the rest.
Please reply with one of these outcomes: active, inactive

Please let me know the test result on file for CCOC(=O)/C(=C\c1ccc(C(=O)OC)cc1)[Se]c1ccccc1 .
inactive

Write down the call the test reported for this compound. Item: CCOC(=O)C(NC(=O)C(Cc1ccc(N(CCCl)CCCl)cc1)NC(C)=O)C(C)C (centres undefined)
inactive

Give the logged outcome of this assay for the following compound: CC/C(=C/c1ccc2c(c1)OCO2)[N+](=O)[O-]
active

I would be grateful if you could indicate the recorded call for CC1CCCN(CCc2ccccc2)CC1 (centres undefined) .
inactive
